- Test system: dengue virus type 1
- Assay Remarks: Activity of dengue virus 1 recombinant NS3 protease expressed in Escherichia coli C41(DE3) by fluorogenic assay
Non-standard residues stand in square brackets, D forms with d. Residues, ends and D or L forms follow the SMILES beside them. Tyr(3-NO2) = N[C@@H](Cc1ccc(O)c([N+](=O)[O-])c1)C(=O)O; 2Abz = Nc1ccccc1C(=O)O
# if measured kcat < 0.08 s⁻¹: satisfied  # else: not satisfied

Molecule	Assay System	Category Label
NC(=O)C[C@H](NC(=O)c1ccccc1N)C(=O)N1CCC[C@H]1C(=O)N[C@@H](CO)C(=O)N[C@@H](Cc1cnc[nH]1)C(=O)N[C@@H](Cc1ccc(O)c([N+](=O)[O-])c1)C(N)=O (H-[2Abz]NPSH[Tyr(3-NO2)]-NH2)	dengue virus type 1	satisfied
C[C@H](NC(=O)[C@H](CO)NC(=O)c1ccccc1N)C(=O)NCC(=O)N[C@@H](Cc1ccc(O)c([N+](=O)[O-])c1)C(N)=O (H-[2Abz]SAG[Tyr(3-NO2)]-NH2)	dengue virus type 1	not satisfied
NC(=O)[C@H](Cc1ccc(O)c([N+](=O)[O-])c1)NC(=O)[C@H](CC(=O)O)NC(=O)[C@H](CS)NC(=O)[C@H](Cc1cnc[nH]1)NC(=O)[C@H](CO)NC(=O)c1ccccc1N (H-[2Abz]SHCD[Tyr(3-NO2)]-NH2)	dengue virus type 1	satisfied
C[C@H](NC(=O)CNC(=O)c1ccccc1N)C(=O)N[C@H](C(=O)N[C@@H](Cc1cnc[nH]1)C(=O)N[C@@H](Cc1ccc(O)c([N+](=O)[O-])c1)C(N)=O)[C@@H](C)O (H-[2Abz]GATH[Tyr(3-NO2)]-NH2)	dengue virus type 1	not satisfied

###

- Test system: dengue virus type 4
- Assay Remarks: Activity of dengue virus 4 recombinant NS3 protease expressed in Escherichia coli C41(DE3) by fluorogenic assay
Non-standard residues stand in square brackets, D forms with d. Residues, ends and D or L forms follow the SMILES beside them. Tyr(3-NO2) = N[C@@H](Cc1ccc(O)c([N+](=O)[O-])c1)C(=O)O; 2Abz = Nc1ccccc1C(=O)O

Compound	Assay System	kcat [s⁻¹]
NC(=O)C[C@H](NC(=O)CNC(=O)[C@H](Cc1cnc[nH]1)NC(=O)[C@H](Cc1cnc[nH]1)NC(=O)c1ccccc1N)C(=O)N[C@@H](Cc1ccc(O)c([N+](=O)[O-])c1)C(N)=O (H-[2Abz]HHGN[Tyr(3-NO2)]-NH2)	dengue virus type 4	0.0192
C[C@@H](O)[C@H](NC(=O)CNC(=O)c1ccccc1N)C(=O)NCC(=O)N[C@@H](CC(N)=O)C(=O)N[C@@H](Cc1ccc(O)c([N+](=O)[O-])c1)C(N)=O (H-[2Abz]GTGN[Tyr(3-NO2)]-NH2)	dengue virus type 4	0.0855
C[C@H](NC(=O)c1ccccc1N)C(=O)NCC(=O)N1CCC[C@H]1C(=O)N[C@@H](CC(N)=O)C(=O)N[C@@H](Cc1ccc(O)c([N+](=O)[O-])c1)C(N)=O (H-[2Abz]AGPN[Tyr(3-NO2)]-NH2)	dengue virus type 4	0.0745
CC(C)C[C@H](NC(=O)[C@@H]1CCCN1C(=O)[C@H](Cc1c[nH]c2ccccc12)NC(=O)[C@H](CO)NC(=O)c1ccccc1N)C(=O)N[C@@H](Cc1ccc(O)c([N+](=O)[O-])c1)C(N)=O (H-[2Abz]SWPL[Tyr(3-NO2)]-NH2)	dengue virus type 4	0.0668

###

Here, each record is paired with measured Km data.
- Test system: dengue virus type 3
- Assay Remarks: Activity of dengue virus 3 recombinant NS3 protease expressed in Escherichia coli C41(DE3) by fluorogenic assay
Non-standard residues stand in square brackets, D forms with d. Residues, ends and D or L forms follow the SMILES beside them. Tyr(3-NO2) = N[C@@H](Cc1ccc(O)c([N+](=O)[O-])c1)C(=O)O; 2Abz = Nc1ccccc1C(=O)O

Compound	Assay System	Km (µM)
C[C@@H](O)[C@H](NC(=O)[C@H](CO)NC(=O)[C@H](CC(=O)O)NC(=O)c1ccccc1N)C(=O)N[C@@H](CS)C(=O)N[C@@H](Cc1ccc(O)c([N+](=O)[O-])c1)C(N)=O (H-[2Abz]DSTC[Tyr(3-NO2)]-NH2)	dengue virus type 3	11.1
C[C@@H](O)[C@H](NC(=O)[C@H](CO)NC(=O)c1ccccc1N)C(=O)N1CCC[C@H]1C(=O)N[C@@H](Cc1cnc[nH]1)C(=O)N[C@@H](Cc1ccc(O)c([N+](=O)[O-])c1)C(N)=O (H-[2Abz]STPH[Tyr(3-NO2)]-NH2)	dengue virus type 3	42.2
CSCC[C@H](NC(=O)[C@H](C)NC(=O)[C@H](C)NC(=O)[C@H](CO)NC(=O)c1ccccc1N)C(=O)N[C@@H](Cc1ccc(O)c([N+](=O)[O-])c1)C(N)=O (H-[2Abz]SAAM[Tyr(3-NO2)]-NH2)	dengue virus type 3	13.8
CSCC[C@H](NC(=O)CNC(=O)[C@H](C)NC(=O)[C@H](C)NC(=O)c1ccccc1N)C(=O)N[C@@H](Cc1ccc(O)c([N+](=O)[O-])c1)C(N)=O (H-[2Abz]AAGM[Tyr(3-NO2)]-NH2)	dengue virus type 3	12.1

###

Here, each record is paired with measured Km data.
- Tested on: dengue virus type 1
- Assay Remarks: Activity of dengue virus 1 recombinant NS3 protease expressed in Escherichia coli C41(DE3) by fluorogenic assay
Non-standard residues stand in square brackets, D forms with d. Residues, ends and D or L forms follow the SMILES beside them. Tyr(3-NO2) = N[C@@H](Cc1ccc(O)c([N+](=O)[O-])c1)C(=O)O; 2Abz = Nc1ccccc1C(=O)O
Attribute Measured: Km (µM)

Molecule	Measured Value
C[C@H](NC(=O)CNC(=O)[C@H](C)NC(=O)[C@H](CO)NC(=O)c1ccccc1N)C(=O)N[C@@H](Cc1ccc(O)c([N+](=O)[O-])c1)C(N)=O (H-[2Abz]SAGA[Tyr(3-NO2)]-NH2)	23.3
NC(=O)[C@H](Cc1ccc(O)c([N+](=O)[O-])c1)NC(=O)[C@H](CC(=O)O)NC(=O)[C@H](CO)NC(=O)[C@H](Cc1c[nH]c2ccccc12)NC(=O)[C@H](Cc1cnc[nH]1)NC(=O)c1ccccc1N (H-[2Abz]HWSD[Tyr(3-NO2)]-NH2)	17.2
CSCC[C@H](NC(=O)CNC(=O)[C@H](C)NC(=O)[C@H](C)NC(=O)c1ccccc1N)C(=O)N[C@@H](Cc1ccc(O)c([N+](=O)[O-])c1)C(N)=O (H-[2Abz]AAGM[Tyr(3-NO2)]-NH2)	17.9
CC(C)C[C@H](NC(=O)[C@H](Cc1cnc[nH]1)NC(=O)c1ccccc1N)C(=O)N[C@H](C(=O)N[C@@H](Cc1cnc[nH]1)C(=O)N[C@@H](Cc1ccc(O)c([N+](=O)[O-])c1)C(N)=O)C(C)C (H-[2Abz]HLVH[Tyr(3-NO2)]-NH2)	8.83

###

- Tested on: dengue virus type 1
- Assay Remarks: Activity of dengue virus 1 recombinant NS3 protease expressed in Escherichia coli C41(DE3) by fluorogenic assay
Non-standard residues stand in square brackets, D forms with d. Residues, ends and D or L forms follow the SMILES beside them. Tyr(3-NO2) = N[C@@H](Cc1ccc(O)c([N+](=O)[O-])c1)C(=O)O; 2Abz = Nc1ccccc1C(=O)O
Tag: class 1 if measured kcat is not below 0.03 s⁻¹, class 0 if it is.

Compound	Category Label
C[C@H](NC(=O)c1ccccc1N)C(=O)N[C@@H](CC(N)=O)C(=O)NCC(=O)N[C@@H](Cc1cnc[nH]1)C(=O)N[C@@H](Cc1ccc(O)c([N+](=O)[O-])c1)C(N)=O (H-[2Abz]ANGH[Tyr(3-NO2)]-NH2)	class 1
C[C@H](NC(=O)[C@H](CC(N)=O)NC(=O)c1ccccc1N)C(=O)N[C@@H](CS)C(=O)N[C@@H](CS)C(=O)N[C@@H](Cc1ccc(O)c([N+](=O)[O-])c1)C(N)=O (H-[2Abz]NACC[Tyr(3-NO2)]-NH2)	class 0
C[C@H](NC(=O)c1ccccc1N)C(=O)NCC(=O)N1CCC[C@H]1C(=O)N[C@@H](CC(N)=O)C(=O)N[C@@H](Cc1ccc(O)c([N+](=O)[O-])c1)C(N)=O (H-[2Abz]AGPN[Tyr(3-NO2)]-NH2)	class 0
C[C@H](NC(=O)CNC(=O)[C@H](C)NC(=O)[C@H](CO)NC(=O)c1ccccc1N)C(=O)N[C@@H](Cc1ccc(O)c([N+](=O)[O-])c1)C(N)=O (H-[2Abz]SAGA[Tyr(3-NO2)]-NH2)	class 1
C[C@@H](O)[C@H](NC(=O)CNC(=O)c1ccccc1N)C(=O)NCC(=O)N[C@@H](CC(N)=O)C(=O)N[C@@H](Cc1ccc(O)c([N+](=O)[O-])c1)C(N)=O (H-[2Abz]GTGN[Tyr(3-NO2)]-NH2)	class 1
